assayed.system: T1, MPDZ_5, O75970
T1 sequence (O75970 695-796, limits assumed, looked up): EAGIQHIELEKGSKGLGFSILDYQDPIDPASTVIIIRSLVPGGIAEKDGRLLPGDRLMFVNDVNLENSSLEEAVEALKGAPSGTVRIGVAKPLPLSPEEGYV
method.description: holdup assay
Set-up: key: below the threshold = too weak to quantify, mostly under pKd 3.1 to 4
assay.setup: plain residues with an end cap or a label only (N-terminal biotin on a linker: ado-ado)
readout.name: pKd

Some binders with known pKd results, for comparison:
Please look at this binder and report its pKd: IQISELETNV [SLC1A7, O00341]
below the threshold

Please look at this binder and report its pKd: EFKQTSSFLV [JAM1, Q9Y624]
below the threshold

Please look at this binder and report its pKd: HLSTRQGTCV [ATRNL1, Q5VV63]
3.66

Please look at this binder and report its pKd: GSQSQVETEA [FKBP4, Q02790]
below the threshold

Please look at this binder and report its pKd: KIEDVEITLV [FCHSD2, O94868]
below the threshold

Provide the reported pKd of each entry below, same order.
1. GDSSRKEYFI [GYPC, P04921]
2. PGKKPEDSRV [SLCO2B1, O94956]
3. FHSIKQSTAV [CRHR1, P34998]

4.66
below the threshold
below the threshold
